Target: T1, TNFR1 (Homo sapiens, UniProt P19438)
T1 chain: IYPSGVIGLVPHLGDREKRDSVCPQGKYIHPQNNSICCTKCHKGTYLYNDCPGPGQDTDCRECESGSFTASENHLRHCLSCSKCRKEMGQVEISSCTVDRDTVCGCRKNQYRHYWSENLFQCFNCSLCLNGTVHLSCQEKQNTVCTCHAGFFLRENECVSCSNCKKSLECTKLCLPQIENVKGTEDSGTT
Assay: yeast display SC50
The following binders are listed with their measured apparent Kd (screen) values.

# Binder, apparent Kd (screen) [nM]
rows = [
    ("A15G (designed binder) MTLQELLREEALRRGEAEAFRYALELLAEKFPEQKEYLLDLAEEIESQIRSLSGVDVEDVRKFLDKEWAWVKELLAEHPAELAEVEAARAARLAELRAEVEAKVAA", 0.539),
    ("E101N (designed binder) MTLQELLREEALRRAEAEAFRYALELLAEKFPEQKEYLLDLAEEIESQIRSLSGVDVEDVRKFLDKEWAWVKELLAEHPAELAEVEAARAARLAELRAEVNAKVAA", 0.718),
]
